Origin of measurements: patent US8410310B2

Give measured pKi for each item. Keep answers brief.
molecular target: plasmin (Homo sapiens); assay: Determination of inhibition constants for plasmin; format: biochemical; parameters: purchased Calbiochem; details: 25° C., substrate Chromozym PL, pH 8.0; read-out: Plasmin [Ki]
pKi: −log10 of the molar value.

For this compound ( CC(C)(C)OC[C@@H](NS(=O)(=O)Cc1ccc(C(=O)O)cc1)C(=O)N[C@@H](Cc1cccc(CN)c1)C(=O)NCc1ccc(C(=N)N)cc1 [compound 65] ), measured pKi is > 7.00

pKi reported for this compound N=C(N)c1ccc(CNC(=O)[C@H](CCc2cccc(CN)c2)NC(=O)[C@@H](CO)NS(=O)(=O)Cc2ccccc2)cc1 [compound 74] : > 7.00

Form: compound = N=C(N)c1ccc(CNC(=O)[C@H](CCc2ccccc2)NC(=O)[C@@H](CCCc2ccccc2)NS(=O)(=O)Cc2ccc(C(=O)O)cc2)cc1 [compound 35] ; pKi = > 8.00

The compound listed as N=C(N)c1ccc(CNC(=O)[C@H](Cc2ccc(CN)cc2)NC(=O)[C@@H](CCCc2ccccc2)NS(=O)(=O)Cc2cccc(C(=O)O)c2)cc1 [compound 30] has a reported pKi of > 8.00

response.value for N=C(N)c1ccc(CNC(=O)[C@H](Cc2cccc(CN)c2)NC(=O)[C@@H](CCCCN)NS(=O)(=O)Cc2ccccc2)cc1 [compound 59] (field: pKi) = > 7.00

// N=C(N)c1ccc(CNC(=O)[C@H](Cc2cccc(CN)c2)NC(=O)[C@@H](CCCc2ccccc2)NS(=O)(=O)Cc2cccc(C(=O)O)c2)cc1 [compound 3] : pKi value = > 8.00

----------
target: plasma kallikrein (Homo sapiens, UniProt P03952); test: Determination of inhibition constants for PK; format: biochemical; parameters: purchased Enzyme Research Lab. / Enzyme Research Laboratories; settings: 25° C., substrate S2302, pH 8.0; read-out: PK [Ki]
Sequence (P03952 391-638 limits assumed): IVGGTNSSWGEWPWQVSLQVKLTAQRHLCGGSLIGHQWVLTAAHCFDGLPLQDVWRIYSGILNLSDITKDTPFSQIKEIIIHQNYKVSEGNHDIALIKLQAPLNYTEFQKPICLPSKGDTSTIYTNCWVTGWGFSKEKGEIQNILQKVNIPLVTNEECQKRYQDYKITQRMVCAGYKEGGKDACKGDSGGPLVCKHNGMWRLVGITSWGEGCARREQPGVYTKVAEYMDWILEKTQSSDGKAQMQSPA
Sequence (P03952 20-390 partner limits assumed): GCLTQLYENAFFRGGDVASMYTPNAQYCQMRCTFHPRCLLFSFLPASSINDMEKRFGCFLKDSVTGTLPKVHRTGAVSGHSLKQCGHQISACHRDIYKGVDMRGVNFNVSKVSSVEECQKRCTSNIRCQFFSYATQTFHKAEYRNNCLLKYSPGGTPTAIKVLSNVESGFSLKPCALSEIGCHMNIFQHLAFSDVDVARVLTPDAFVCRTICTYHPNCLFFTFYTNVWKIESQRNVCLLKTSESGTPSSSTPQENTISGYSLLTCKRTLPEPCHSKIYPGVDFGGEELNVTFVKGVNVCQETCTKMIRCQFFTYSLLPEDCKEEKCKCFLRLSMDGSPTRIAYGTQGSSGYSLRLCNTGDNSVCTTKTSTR
measure: Ki

For CC(C)(C)OC(=O)NCCCC[C@@H](NS(=O)(=O)Cc1ccc(C(=O)O)cc1)C(=O)N[C@@H](Cc1cccc(CN)c1)C(=O)NCc1ccc(C(=N)N)cc1 the compound record lists Ki as < 10 nM

The recorded Ki for N=C(N)c1ccc(CNC(=O)[C@H](Cc2cccc(CN)c2)NC(=O)[C@@H](Cc2ccc3ccccc3c2)NS(=O)(=O)Cc2ccccc2)cc1 is < 10 nM

// sample N=C(N)c1ccc(CNC(=O)[C@H](CCc2ccc(CN)cc2)NC(=O)[C@@H](CCCc2ccccc2)NS(=O)(=O)Cc2ccccc2)cc1 , its Ki was < 100 nM

----------
experiment: Terminal half-life in rats; settings: rat, in vivo
measure: half-life (min)
Answer in min, number only, no unit symbol.

The compound listed as N=C(N)c1ccc(CNC(=O)[C@H](Cc2cccc(CN)c2)NC(=O)[C@@H](CCCc2ccccc2)NS(=O)(=O)Cc2cccc(C(=O)O)c2)cc1 has a reported half-life of 20

----------
target: plasmin (Homo sapiens, UniProt P00747); assay: Determination of inhibition constants for plasmin; assay type: biochemical; parameters: purchased Calbiochem; details: summary of results; read-out: Ki value of the plasmin inhibition
Sequence (P00747 581-810 limits assumed): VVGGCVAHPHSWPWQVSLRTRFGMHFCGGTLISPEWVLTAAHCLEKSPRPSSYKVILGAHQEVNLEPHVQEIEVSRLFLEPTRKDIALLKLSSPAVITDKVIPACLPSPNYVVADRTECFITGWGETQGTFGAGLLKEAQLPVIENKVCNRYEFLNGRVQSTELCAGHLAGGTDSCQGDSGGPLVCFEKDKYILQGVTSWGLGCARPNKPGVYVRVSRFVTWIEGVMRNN
Sequence (P00747 97-580 partner limits assumed): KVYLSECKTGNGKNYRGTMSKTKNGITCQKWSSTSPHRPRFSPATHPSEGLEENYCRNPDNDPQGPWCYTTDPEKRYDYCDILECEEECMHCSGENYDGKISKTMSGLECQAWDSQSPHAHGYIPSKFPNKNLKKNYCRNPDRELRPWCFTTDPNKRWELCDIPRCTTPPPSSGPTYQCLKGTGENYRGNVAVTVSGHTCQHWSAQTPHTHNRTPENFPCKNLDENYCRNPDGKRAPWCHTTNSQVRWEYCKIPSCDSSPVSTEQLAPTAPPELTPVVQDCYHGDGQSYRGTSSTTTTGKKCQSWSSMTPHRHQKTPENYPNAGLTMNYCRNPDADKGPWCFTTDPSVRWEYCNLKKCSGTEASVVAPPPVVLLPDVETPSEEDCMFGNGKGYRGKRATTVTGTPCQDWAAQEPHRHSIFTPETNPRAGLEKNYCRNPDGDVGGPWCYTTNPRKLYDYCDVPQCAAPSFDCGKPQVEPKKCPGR
measure: Ki

Lab note: N=C(N)c1ccc(CNC(=O)[C@H](CCc2ccncc2)NC(=O)[C@@H](CCCc2ccccc2)NS(=O)(=O)Cc2ccccc2)cc1 [compound 39] gave Ki of < 5 nM

Ki measured on N=C(N)c1ccc(CNC(=O)[C@H](Cc2cccc(CN)c2)NC(=O)[C@@H](Cc2ccc(-c3ccccc3)cc2)NS(=O)(=O)Cc2ccccc2)cc1 [compound 14] = < 5 nM

Data point: N=C(N)c1ccc(CNC(=O)[C@H](CCc2ccccc2)NC(=O)[C@@H](CCCc2ccccc2)NS(=O)(=O)Cc2ccc(C(=O)O)cc2)cc1 [compound 35] ; Ki = < 5 nM

----------
Exercise: state measured Ki for each of the compounds provided.
molecular target: Thrombin (Homo sapiens, UniProt P00734); assay: Determination of inhibition constants for thrombin; type: biochemical

Please fill in: Ki reported for N=C(N)c1ccc(CNC(=O)[C@H](Cc2cccc(CN)c2)NC(=O)[C@@H](Cc2ccc3ccccc3c2)NS(=O)(=O)Cc2ccccc2)cc1 [compound 17] = < 1 µM

Kindly note the recorded Ki for N=C(N)c1ccc(CC[C@H](NC(=O)[C@@H](CC2CCCCC2)NS(=O)(=O)Cc2ccccc2)C(=O)NCc2ccc(C(=N)N)cc2)cc1 [compound 38] , which is < 0.01 µM

Documented Ki of N=C(N)c1ccc(CNC(=O)[C@H](Cc2cccc(CN)c2)NC(=O)[C@@H](CO)NS(=O)(=O)Cc2ccccc2)cc1 [compound 68] : > 1 µM

The reported Ki of the compound N=C(N)c1ccc(CNC(=O)[C@H](CCc2ccccc2)NC(=O)[C@@H](CCCc2cccnc2)NS(=O)(=O)Cc2ccccc2)cc1 [compound 51] was < 0.01 µM

So, Cc1ccc(CCC[C@@H](NS(=O)(=O)Cc2ccccc2)C(=O)N[C@@H](Cc2cccc(CN)c2)C(=O)NCc2ccc(C(=N)N)cc2)cc1 [compound 9] ? Its Ki was < 1 µM

----------
Consider the following compounds; for each one, report its pKi.
target: plasma kallikrein (Homo sapiens); assay: Determination of inhibition constants for PK; assay type: biochemical; set-up: purchased Enzyme Research Lab. / Enzyme Research Laboratories; details: 25° C., substrate S2302, pH 8.0; read-out: PK [Ki]
pKi: −log10 of the molar value.

Measured pKi, N=C(N)c1ccc(CNC(=O)[C@H](Cc2cccc(CN)c2)NC(=O)[C@@H](CCCc2ccccc2)NS(=O)(=O)Cc2cccc(C(=O)O)c2)cc1 : > 8.00

Lab note: measured pKi of COc1ccc(CCC[C@@H](NS(=O)(=O)Cc2ccccc2)C(=O)N[C@@H](Cc2cccc(CN)c2)C(=O)NCc2ccc(C(=N)N)cc2)cc1 was > 8.00

Entry N=C(N)c1ccc(CNC(=O)[C@H](CCc2ccccc2)NC(=O)[C@@H](CCCc2cc[n+]([O-])cc2)NS(=O)(=O)Cc2ccccc2)cc1 , pKi reported as > 8.00

Record summary for N=C(N)c1ccc(CNC(=O)[C@H](CCc2cccc(CN)c2)NC(=O)[C@@H](CO)NS(=O)(=O)Cc2ccccc2)cc1 : reported pKi = > 7.00

----------
pKi: −log10 of the molar value.
measure: pKi

For the molecule N=C(N)c1ccc(CNC(=O)[C@H](CCc2ccccc2)NC(=O)[C@@H](CCCc2cccnc2)NS(=O)(=O)Cc2cccc(C(=O)O)c2)cc1 , the measured pKi on Xa (Homo sapiens, UniProt P00742) was > 8.00

Xa (Homo sapiens, UniProt P00742) assay, molecule COC(=O)c1ccc(CS(=O)(=O)N[C@H](COC(C)(C)C)C(=O)N[C@@H](Cc2cccc(CN)c2)C(=O)NCc2ccc(C(=N)N)cc2)cc1 , recorded pKi = < 6.00

Measured pKi (Xa (Homo sapiens, UniProt P00742)), entry CC(C)(C)OC[C@@H](NS(=O)(=O)Cc1ccccc1)C(=O)N[C@@H](CCc1ccc(C(=N)N)cc1)C(=O)NCc1ccc(C(=N)N)cc1 : > 6.00

Measured pKi for this entry N=C(N)c1ccc(CNC(=O)[C@H](Cc2cccc(CN)c2)NC(=O)[C@H](NS(=O)(=O)Cc2ccccc2)C(c2ccccc2)c2ccccc2)cc1 on Xa (Homo sapiens, UniProt P00742): > 7.00

----------
target: plasmin (Homo sapiens); assay: Determination of inhibition constants for plasmin; assay type: biochemical; parameters: purchased Calbiochem; settings: 25° C., substrate Chromozym PL, pH 8.0; read-out: Plasmin [Ki]
measure: Ki

# Ki (molecule: N=C(N)c1ccc(CNC(=O)[C@H](Cc2ccc(C(=N)N)cc2)NC(=O)[C@@H](CO)NS(=O)(=O)Cc2ccccc2)cc1 ) is < 100 nM

Entry N=C(N)c1ccc(CNC(=O)[C@H](Cc2cccc(CN)c2)NC(=O)[C@@H](CCc2ccc(O)cc2)NS(=O)(=O)Cc2ccccc2)cc1 — recorded Ki = < 10 nM

Per the record, N=C(N)Nc1ccc(CNC(=O)[C@H](Cc2cccc(CN)c2)NC(=O)[C@@H](CCCc2ccccc2)NS(=O)(=O)Cc2cccc(C(=O)O)c2)cc1 has Ki of < 100 nM

The recorded Ki for entry N=C(N)c1ccc(CNC(=O)[C@H](Cc2cccc(CN)c2)NC(=O)[C@@H](CN)NS(=O)(=O)Cc2ccccc2)cc1 equals < 100 nM
